Provide the recorded INHIBITION for the entries that follow.
system: Plasmodium berghei; experiment: Screen against P. berghei liver stage (PbLuc), transformed with Luciferase, at 2uM; type: functional, HepG2; settings: tested at 2 uM
In all, about 68,000 compounds went through this assay and about 2,700 (4%) showed an effect of 50% or more. The sample holds strong results, similar compounds and a random draw of the others, so the mix is not that of the screen.
Output spec: scalar in %, unitless text.

Look up and state reported INHIBITION for "Cc1ccc(CS(=O)(=O)CC(=O)NCc2ccccc2F)cc1" 26.74

State its INHIBITION for this compound: "CN(C)c1cc2c(nn1)CCN(C(=O)c1cc3c(s1)CCOC3)C2" 56.05

# return recorded INHIBITION for entry NC(=O)C(Cc1ccccc1)NS(=O)(=O)Cc1ccccc1Cl (configuration not stated) -7.47

In one line, give reported INHIBITION of the entry CC(C)(C)N1CC(C(=O)NCc2noc(Cc3ccccc3)n2)CC1=O (configuration not stated) . 50.63

Identify the reported INHIBITION for the following entry. CN(C)c1cc2c(nn1)CCN(C(=O)C1Cc3ccccc3S1)C2 (configuration not stated) 65.77

Identify the reported INHIBITION for the following entry. "CN(C)c1cc2c(nn1)CCN(C(=O)c1cc3c(s1)CCCC3)C2" 28.39

Give INHIBITION for the following compound: N#Cc1cccc(CS(=O)(=O)NC(Cc2ccccc2)C(N)=O)c1 (configuration not stated) 18.29

Tell me INHIBITION reported for "CNC(=O)c1cc2c(nc1N(C)C)CCN(c1ncc(C)cn1)CC2" -37.2

Return reported INHIBITION. Input compound: O=C(C1CC1)N1CCC(O)(CN2CCN(c3ccccc3)CC2)C1 (configuration not stated) 0.64

Entry CCCn1nnnc1CN(C)C(C)c1ccc(C)cc1 (configuration not stated) needs its INHIBITION filled in; supply it. 67.28

Specify reported INHIBITION for the compound shown: "O=C(c1ccc2nccnc2c1)N1CCN(CCO)[C@@H]2CS(=O)(=O)C[C@@H]21" 14.82

Given the compound "CC(C)CN1CCN(S(=O)(=O)c2cn(C)cn2)[C@H]2CS(=O)(=O)C[C@H]21" , write its reported INHIBITION. 15.74

Give the value of INHIBITION reported for the following: "Cc1ccnc(SCC(=O)Nc2csc3nc(=O)c(C)nn23)n1" 35.42

Answer with the recorded INHIBITION of "Cn1cnc2cc(C(=O)N3CCN(CCO)[C@@H]4CS(=O)(=O)C[C@@H]43)ccc21" only. 55.36

Annotate the compound CN(C)c1cc2c(nn1)CCN(C(=O)C1Cc3ccccc3O1)C2 (configuration not stated) with its measured INHIBITION. 11.24

Tell me measured INHIBITION for Cc1cc(C(F)(F)F)nc(CNC(=O)CCC2CCCCN2C)n1 (configuration not stated) please. 54.77

Read the entry "COC(=O)c1cc(C(=O)N2CCN(C)CC2)n(-c2ccccc2)n1" and write its reported INHIBITION. 15.4

Return INHIBITION (reported value) for this compound: "COC(=O)c1cc(C(=O)N2CCC(C)CC2)n(-c2ccccc2)n1" 35.23

Consider the compound Cc1cc(C(F)(F)F)nc(CNC(=O)C2CCCCCN2C)n1 (configuration not stated) and give its recorded INHIBITION. 20.77

# return recorded INHIBITION for input "CC(C)=CCN1CCN(S(=O)(=O)c2cn(C)cn2)[C@H]2CS(=O)(=O)C[C@H]21" 50.98

Return the recorded INHIBITION value; entry: c1ccc(OC2COC3(CCN(CC4CC4)CC3)C2)nc1 (configuration not stated) -17.63

Return INHIBITION (reported value) for this compound: COCCc1noc(CNC(=O)C2CC(=O)N(C(C)(C)C)C2)n1 (configuration not stated) -28.97
